# experimental details: Human HepG2 cell viability assay in 384 well format
# Assay type: toxicity, cell-based
# Parameters: dose 125 nL, time 70.5 hour; concentration not given beside the values
# stated conditions: HepG2 cells, read-out: Inhibition
readout name: cytotoxicity at 70.5 h (%)
Give bare numbers, in %.

molecule: CC(C)c1ccc(C(N)c2cccs2)cc1 (centres undefined)
readout name: cytotoxicity at 70.5 h
assay value: -5.3
--
molecule: CC(c1nc(C2CC2)no1)N1CCc2c(ncn2C2CC2)C1 (centres undefined)
readout name: cytotoxicity at 70.5 h
assay value: -7.1
--
molecule: Cc1ccc(-c2nc(CNC3CCc4ncnn4C3)co2)cc1 (centres undefined)
readout name: cytotoxicity at 70.5 h
assay value: -9.15

Hi there! I need cytotoxicity at 70.5 h for each item below, if you can.
1. O=C(c1cccnc1)N(Cc1ccncc1)C1CC1
2. Cc1nc(C)c(COc2ccc(N(C)S(C)(=O)=O)cc2)s1
3. CC(C)c1nc(C2CCCN2Cc2ccno2)no1 (centres undefined)
4. NC(=O)NCCC(=O)NCc1nn(-c2ccccc2)c2c1CCC2
5. COCCNC(=O)c1cc(OC)c2ccoc2c1

Response given:
-4.09
2.74
-12
-16.4
-1.33

----------
# experimental details: Human HepG2 cell viability assay in 384 well format
# Format: toxicity, cell-based
# Parameters: dose 125 nL, time 70.5 hour; concentration not given beside the values
# stated conditions: HepG2 cells, read-out: Inhibition
readout name: cytotoxicity at 70.5 h (%)
Answers are plain numbers, in %.

Solved entries (count: 3):
molecule: Cc1noc(C2CCC3(CCN(C(=O)c4ccnnc4)CC3)O2)n1 (configuration not stated)
assay value: -0.131

molecule: Cc1cnc(-n2cnnc2)c(-c2cccc3c2CCNC3)c1
assay value: -7.78

molecule: CC(C)=CCN1C(=O)[C@H]2CC[C@@H]1CN(c1ncccc1C(N)=O)C2
assay value: -9.49

Hi there! I need cytotoxicity at 70.5 h for each item below, if you can.
1. Cn1ccnc1CN1C[C@H]2CN(S(C)(=O)=O)CCN2C1=O
2. CN1CC[C@H](N(Cc2ccccc2)C2COC2)C[C@H](O)C1
3. CN(Cc1ccccc1)C(=O)CN1CCCC1c1cnn(C)c1 (configuration not stated)
4. N#CC1(c2ccccc2)CCN(C(=O)C2CCCN(CC(N)=O)C2)CC1 (configuration not stated)

Response given:
[-0.342, -6.77, -10.2, 1.9]

----------
# experimental details: Human HepG2 cell viability assay in 384 well format
# Assay type: toxicity, cell-based
# Design: dose 125 nL, time 70.5 hour; concentration not given beside the values
# stated conditions: HepG2 cells, read-out: Inhibition
Exercise: state measured cytotoxicity at 70.5 h for each of the compounds provided.
Answers are plain numbers, in %.

Solved entries (count: 4):
compound: COCC(=O)Nc1nccn1Cc1ccc(Br)cc1
cytotoxicity at 70.5 h (%): -0.968
--
compound: OCCOc1cc(F)ccc1NCc1nc(-c2ccoc2)no1
cytotoxicity at 70.5 h (%): 8.3
--
compound: N#CCCN(CCN1CCOCC1)Cc1ccc(F)c(Br)c1
cytotoxicity at 70.5 h (%): -3.12
--
compound: CC(C)[C@H]1CN(Cc2c[nH]nn2)C[C@@H]1NC(=O)C1CCOCC1
cytotoxicity at 70.5 h (%): -0.972

Hi there! I need cytotoxicity at 70.5 h for each item below, if you can.
1. CCN(Cc1ccc2c(c1)OCO2)C(=O)CCc1c(C)nc(C)[nH]c1=O
2. Cc1cc(C)nc(NCCC(=O)Nc2ccc(Cn3cncn3)cc2)n1
3. Cc1cncc(C(=O)N2CCc3ncc(Cn4cccn4)n3CC2)c1
4. COc1ccc(C)cc1CCNS(C)(=O)=O

Response given:
1. -4.97
2. -9.08
3. 22.9
4. -10.4

Hi there! I need cytotoxicity at 70.5 h for each item below, if you can.
1. CC(Cn1cccn1)NC(=O)N1CCN(Cc2ccco2)CC1 (stereo not given)
2. CN(CCc1ccccc1)C(=O)CN1C(=O)OC[C@@H]1c1ccccc1
3. CCn1nnc2c1C(COC)CN(C(=O)Cc1cccs1)C2 (stereo not given)
4. Cc1nc(C)n(CC2CN(CCc3ccncc3)CCO2)n1 (stereo not given)

Response given:
0.805
23.5
-7.34
-0.163
